biological target: human tyrosinase (hTYR^WT) (Homo sapiens, UniProt P14679); assay: activation of diphenol oxidase and monophenolase activity of purified enzyme; urea denaturation
Sequence (P14679 19-469): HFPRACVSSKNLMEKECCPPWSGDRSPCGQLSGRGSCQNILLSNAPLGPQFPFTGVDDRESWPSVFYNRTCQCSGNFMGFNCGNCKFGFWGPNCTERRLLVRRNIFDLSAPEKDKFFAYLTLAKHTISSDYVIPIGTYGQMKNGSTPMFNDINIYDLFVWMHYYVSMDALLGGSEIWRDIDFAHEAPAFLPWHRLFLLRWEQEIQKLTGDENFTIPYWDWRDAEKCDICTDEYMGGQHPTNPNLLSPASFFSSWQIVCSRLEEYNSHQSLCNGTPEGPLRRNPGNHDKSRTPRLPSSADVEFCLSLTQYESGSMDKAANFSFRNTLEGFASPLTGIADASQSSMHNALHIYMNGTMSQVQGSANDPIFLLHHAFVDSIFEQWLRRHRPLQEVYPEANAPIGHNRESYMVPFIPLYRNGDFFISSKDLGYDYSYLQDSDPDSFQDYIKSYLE
Measure: pEC50
Numbers only, as −log10 of the molar value.

Form: compound = Cc1c(N)c(=O)n(-c2ccccc2)n1C [ampyrone] ; pEC50 = 3.17

---

target: human tyrosinase (hTYR^WT) (Homo sapiens, UniProt P14679); construct: gene TYR; test: biochemical
Measure: pIC50
One number for each entry, as −log10 of the molar value.

Per the record, `Oc1ccc(C2=Cc3ccc(O)cc3OC2)cc1` has pIC50 of 4.54

---

Could you please report measured IC50 for the items listed next?
target: human tyrosinase (hTYR^WT) (Homo sapiens); construct: gene TYR; assay: biochemical; details: read-out: IC50
Give bare numbers, in µM.

Answered cases to consult:
- Compound: "Nc1nc2nc[nH]c2c(=S)[nH]1 [6-thioguanine]"
  IC50 [µM]: 540
- Compound: "Oc1ccc(Nc2ccccc2)cc1 [4-anilinophenol]"
  IC50 [µM]: 3.2
- Compound: "COc1ccc(-c2cc(=S)ss2)cc1 [anethole trithione]"
  IC50 [µM]: 1.45
- Compound: "CN(C)c1ccc(N=NS(=O)(=O)O)cc1 [fenaminosulf]"
  IC50 [µM]: 8.12

From here, focus on the item given below.
human tyrosinase (hTYR^WT) (Homo sapiens) assay, compound O=c1cc(-c2ccc(O)c(O)c2)oc2ccccc12 [3’,4’-dihydroxyflavone] , recorded IC50 = 9.22
